Listing: SPOT peptide array binding signal intensity of selected binders
Biological target: AgHse1
Test: SPOT peptide array binding signal intensity (averaged, normalized) (arbitrary units (background-subtracted, floor 0; scale differs between SH3 domains)); higher = stronger binding of the SH3 domain to the peptide
experimental endpoint: SPOT peptide array binding signal intensity

binder	censoring operator	number
DKSRPPRPPPKPLHL	≤	0
RRARRQMGIPTISQV	=	854
KDKKTKPTPPPKPSH	=	29
GRSRLFPHSPLGRSS	=	716
GKFIPSRPAPKPPSS	=	8
GDHPKGPPPPPPPPD	≤	0
RKQRSIPLSPIVPES	=	375
NLKKRPPTAPQRKIS	=	1520
YLTRPLPSTPNEDSR	≤	0
NPTKSPPPPPSPSTM	=	16
RRSKSLPTTPGIRSG	=	816
QQEQNTPPLPPKPKS	≤	0
RTIRKLPLMSLSEYF	=	356
GDHPKGPPPPPPPDE	≤	0
SSSSTPPTLPPRRIE	=	42.5
QDKEGIPPDQQRLIF	≤	0
DTFLPPPPPPPSNFE	=	4.5
IFLRISINFPLNYPN	=	2460
EVTPKVPERPSRRKT	=	47
NFKRLLPRDPSEKSS	=	2610
DLPLPDLPPEPPTEL	=	10.5
RRASLFPRDPKRLRP	=	1070
RPPRPPPKPLHLRTE	=	178
TSIEIPKRSPLRFTS	≤	0
NAGIRPKFILALNDE	=	616
PAPPPPPRASRPTPN	=	1.5
YVRRRPRVRLEPLLS	=	936
RLSFFFPLDPAYIRN	=	1180
WTQRRGPLVVYAEDN	=	20.5
VRVKKRPLIRPLNSS	=	646
